# systemUnderTest: T1, CX3CR1 (Homo sapiens, UniProt P49238)
# T1 chain: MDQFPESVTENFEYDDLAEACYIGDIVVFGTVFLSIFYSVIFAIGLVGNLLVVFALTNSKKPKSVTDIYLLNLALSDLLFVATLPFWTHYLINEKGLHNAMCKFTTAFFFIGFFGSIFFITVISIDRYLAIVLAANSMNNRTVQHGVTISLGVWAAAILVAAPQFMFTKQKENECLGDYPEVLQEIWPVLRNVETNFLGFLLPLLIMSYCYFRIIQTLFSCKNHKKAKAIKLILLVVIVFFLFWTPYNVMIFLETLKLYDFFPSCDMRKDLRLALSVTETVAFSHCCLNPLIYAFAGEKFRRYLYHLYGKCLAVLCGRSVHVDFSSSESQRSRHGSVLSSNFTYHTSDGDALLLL
# assayInfo: 125I-CX3CL1 saturation radioligand binding (CHO-hCX3CR1 membranes)

binder	Kd / nM
CX3CL1 (fractalkine) chemokine domain (protein, 125I-labelled CX3CL1) LAGQHHGVTKCNITCSKMTSKIPVALLIHYQQNQASCGKRAIILETRQHRLFCADPKEQWVKDAMQHLDRQAAALTRNGGTF	0.19
